Molecular target: T1, Human VE-PTP (HPTP-β) containing first eight FN3 repeats with C-terminal His6 tag (Human ½ VE-PTP ECD) (human, UniProt P23467 23-820)
T1 construct: Produced in HEK293 cells and purified by the His tag; it was not cut off; also called Human Beta ½ ECD
T1 sequence: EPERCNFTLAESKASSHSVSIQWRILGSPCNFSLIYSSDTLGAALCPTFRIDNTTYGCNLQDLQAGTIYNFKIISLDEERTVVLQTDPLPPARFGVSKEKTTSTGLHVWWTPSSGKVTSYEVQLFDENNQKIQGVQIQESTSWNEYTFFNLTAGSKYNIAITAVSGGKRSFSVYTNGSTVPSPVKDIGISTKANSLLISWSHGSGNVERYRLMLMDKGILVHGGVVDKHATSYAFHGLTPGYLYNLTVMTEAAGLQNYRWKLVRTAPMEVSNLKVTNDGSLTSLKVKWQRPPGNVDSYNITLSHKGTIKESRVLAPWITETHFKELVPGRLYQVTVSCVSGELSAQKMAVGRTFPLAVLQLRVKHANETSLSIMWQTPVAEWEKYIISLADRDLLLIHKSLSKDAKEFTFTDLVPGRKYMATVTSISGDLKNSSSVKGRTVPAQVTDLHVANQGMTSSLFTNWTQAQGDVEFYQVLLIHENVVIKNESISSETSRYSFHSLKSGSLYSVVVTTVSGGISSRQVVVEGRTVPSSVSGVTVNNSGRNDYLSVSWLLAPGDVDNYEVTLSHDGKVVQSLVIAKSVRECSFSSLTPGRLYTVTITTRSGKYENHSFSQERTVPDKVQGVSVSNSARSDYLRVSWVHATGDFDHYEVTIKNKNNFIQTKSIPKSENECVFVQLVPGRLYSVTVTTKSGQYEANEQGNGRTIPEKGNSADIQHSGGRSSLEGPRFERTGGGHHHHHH
Test: SPR (Biacore 3000), antibody captured on anti-human IgG, antigen as analyte 25-0 nM
Observed Property: Kd (nM)
One number for each entry, in nM.

See these solved cases before continuing.
Binder: humanized R15E6 variant HC3LC2 (antibody, human IgG4 S228P, kappa, V domains shown, Human IgG4 (S228P) / kappa, expressed in CHO cells; Signal peptides left out by range; also called VH3-VL2) VH: EVQLVESGGGLVQPGRSLRLSCTASGFTFNANAMNWVRQAPGKGLEWVGRIRTKSNNYATYYAGSVKDRFTISRDDSKNIAYLQMNSLKTEDTAVYYCVRDYYGSSAWITYWGQGTLVTVSS VL: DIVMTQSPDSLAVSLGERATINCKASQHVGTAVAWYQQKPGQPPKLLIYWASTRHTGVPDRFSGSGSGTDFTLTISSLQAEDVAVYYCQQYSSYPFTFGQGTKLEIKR
Observed Property: Kd
Result Number: 23.2
--
Binder: humanized R15E6 variant HC2LC2 (antibody, human IgG4 S228P, kappa, V domains shown, Human IgG4 (S228P) / kappa, expressed in CHO cells; Signal peptides left out by range; also called VH2-VL2) VH: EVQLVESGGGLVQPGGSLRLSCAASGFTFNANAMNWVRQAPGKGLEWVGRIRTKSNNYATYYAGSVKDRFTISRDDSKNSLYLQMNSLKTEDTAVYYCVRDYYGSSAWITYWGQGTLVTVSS VL: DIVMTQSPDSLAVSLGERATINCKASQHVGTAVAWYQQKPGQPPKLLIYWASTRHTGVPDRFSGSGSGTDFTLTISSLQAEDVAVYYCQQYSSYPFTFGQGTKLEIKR
Observed Property: Kd
Result Number: 50.6
--
Binder: humanized R15E6 variant HC2LC3 (antibody, human IgG4 S228P, kappa, V domains shown, Human IgG4 (S228P) / kappa, expressed in CHO cells; Signal peptides left out by range; also called VH2-VL3) VH: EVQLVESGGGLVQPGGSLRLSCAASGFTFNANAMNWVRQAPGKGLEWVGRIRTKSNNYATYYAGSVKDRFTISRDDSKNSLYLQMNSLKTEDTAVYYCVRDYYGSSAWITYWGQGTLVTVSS VL: DIQMTQSPFSLSASVGDRVTITCKASQHVGTAVAWYQQKPGKAPKLLIYWASTRHTGVPSRFSGSGSGTDFTLTISSLQPEDFATYFCQQYSSYPFTFGGGTKLEIKR
Observed Property: Kd
Result Number: 1.48

Quick one: Kd for humanized R15E6 variant HC3LC4 (antibody, human IgG4 S228P, kappa, V domains shown, Human IgG4 (S228P) / kappa, expressed in CHO cells; Signal peptides left out by range; also called VH3-VL4) VH: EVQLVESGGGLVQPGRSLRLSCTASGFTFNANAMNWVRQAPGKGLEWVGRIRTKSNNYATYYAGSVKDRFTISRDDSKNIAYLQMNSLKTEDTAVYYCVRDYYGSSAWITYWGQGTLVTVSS VL: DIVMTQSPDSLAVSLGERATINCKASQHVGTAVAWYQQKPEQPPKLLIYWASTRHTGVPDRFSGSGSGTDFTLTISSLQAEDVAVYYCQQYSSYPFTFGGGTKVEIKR ?
8.14
